assay: Cytotoxicity assay (Alamar blue); type: cell-based; conditions: human, MRC5 CC50
quantityMeasured: CC50 at 72 h

> print(dat)
                molecule  observedmeasurement
1  Cc1c(-c2cnccn2)ssc1=S              > 50 µM

// moving on: another record for CC50 at 72 h
Lab note: measured CC50 at 72 h of O=C(C1CCCCC1)N1CC(=O)N2CCc3ccccc3C2C1 (centres unmarked) was > 50 µM

====

test: Cytotoxicity assay (Alamar blue); assay type: cell-based; settings: human, MRC-5 cells, first value of cell; 72 hours; read-out: MRC5 CC50
Each entry below carries its recorded CC50 at 72 h.
API: value field is a number in µM; no unit string.

Below: 2 molecules and their reported CC50 at 72 h.
> print(dat)
                             compoundsmiles  unitsofmeasure  observedmeasurement
1  COc1ccc(-c2cnc3cnc(-c4cccc(OC(C)C)c4)cn23)cc1              µM                 40.1
2  c1ccc(Oc2ccc(-c3cncc(-c4ccc5[nH]ccc5c4)n3)cc2)cc1              µM                   20

// moving on: another record for CC50 at 72 h
Lab note: measured CC50 at 72 h of COc1ccc(-c2nnc3ccc(-c4cccc(C(C)C)c4)cn23)cc1OC was 18.6

====

tested on: S. mansoni adult worms; assay: Adult worm assay, single point and dose response; format: cell-based; settings: Schistosoma mansoni, value in parentheses (second sample; solid vs original liquid sample)
quantityMeasured: pEC50
Lab note — pEC50 values are minus log10 of concentrations in M.

Below: 5 molecules and their reported pEC50.
> print(dat)
                                   molecule  observedmeasurement
1  COc1ccc(-c2nnc3ccc(-c4cccc(C(C)C)c4)cn23)cc1OC                 5.52
2     Cc1ccccc1C(=O)N1N=C(Nc2ccccc2)SC1(C)C                 4.95
3  c1ccc(Oc2ccc(-c3cncc(-c4ccc5[nH]ccc5c4)n3)cc2)cc1                 4.96
4  c1ccc(-c2[nH]c3ccccc3c2C(c2ccccn2)N2CCCC2)cc1 (stereo not drawn)                 4.93
5  COc1ccccc1NC1=NN=C(c2cccc(N3CCCC3=O)c2)CS1                 5.15

// moving on: another record for pEC50
Lab note: measured pEC50 of Clc1ccc(SCc2cc(N3CCCC3)nc(-c3ccccn3)n2)cc1 was 5.27

// provenance: paper PMC4851381
